# credit: ChEMBL document CHEMBL5523729

Please respond with reported Emax for every item in the list.
target: Protein cereblon/Cyclin-dependent kinase 6 (Homo sapiens, UniProt Q00534+Q96SW2)
Sequence (Q00534 whole entry, looked up): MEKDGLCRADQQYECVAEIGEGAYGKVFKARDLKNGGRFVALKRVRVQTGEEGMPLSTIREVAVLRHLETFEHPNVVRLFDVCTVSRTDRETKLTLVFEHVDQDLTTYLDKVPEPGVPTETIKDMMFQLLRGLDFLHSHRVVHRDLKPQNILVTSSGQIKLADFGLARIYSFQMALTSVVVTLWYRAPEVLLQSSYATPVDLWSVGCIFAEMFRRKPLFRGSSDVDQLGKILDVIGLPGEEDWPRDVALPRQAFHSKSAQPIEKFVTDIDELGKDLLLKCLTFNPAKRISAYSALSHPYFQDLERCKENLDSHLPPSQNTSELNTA
Sequence (Q96SW2 whole entry, looked up): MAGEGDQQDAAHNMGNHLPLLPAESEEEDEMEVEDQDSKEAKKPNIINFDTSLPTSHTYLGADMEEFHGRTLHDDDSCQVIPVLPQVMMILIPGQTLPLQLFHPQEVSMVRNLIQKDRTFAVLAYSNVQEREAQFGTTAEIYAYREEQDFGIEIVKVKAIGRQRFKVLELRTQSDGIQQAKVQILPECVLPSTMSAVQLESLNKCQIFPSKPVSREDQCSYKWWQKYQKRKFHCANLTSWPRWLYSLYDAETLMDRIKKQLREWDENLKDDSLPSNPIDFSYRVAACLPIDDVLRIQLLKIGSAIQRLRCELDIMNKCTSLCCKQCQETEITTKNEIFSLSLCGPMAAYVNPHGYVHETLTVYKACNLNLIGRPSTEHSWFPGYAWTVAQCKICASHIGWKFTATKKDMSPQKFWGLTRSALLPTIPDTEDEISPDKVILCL
measurement notes: PROTAC activity at CDK6/CRBN in human Jurkat cells assessed as maximal protein degradation by Western blot analysis relative to control
Format: cell-based
Reply with just the number (in %).

Considering O=C1CCC(N2C(=O)c3cccc(NC(=O)CCCCCCN4CCN(c5ccc(Nc6ncc7ncc(=O)n(C8CCCC8)c7n6)cc5)CC4)c3C2=O)C(=O)N1 (centres undefined) , its Emax with Protein cereblon/Cyclin-dependent kinase 6 (Homo sapiens, UniProt Q00534+Q96SW2) was recorded as 95

Hey, Protein cereblon/Cyclin-dependent kinase 6 (Homo sapiens, UniProt Q00534+Q96SW2) data for O=C1CCC(N2C(=O)c3cccc(NC(=O)CCCCCCC(=O)N4CCN(c5ccc(Nc6ncc7ncc(=O)n(C8CCCC8)c7n6)cc5)CC4)c3C2=O)C(=O)N1 (centres undefined) : Emax came out at 92

Case O=C1CCC(N2C(=O)c3cccc(NCCOCCOCCN4CCN(c5ccc(Nc6ncc7ncc(=O)n(C8CCCC8)c7n6)cc5)CC4)c3C2=O)C(=O)N1 (centres undefined) , Protein cereblon/Cyclin-dependent kinase 6 (Homo sapiens, UniProt Q00534+Q96SW2), Emax recorded as 94

Recorded Emax for O=C1CCC(N2C(=O)c3ccc(N4CCN(CC5CCN(C(=O)CN6CCN(c7ccc(Nc8ncc9ncc(=O)n(C%10CCCC%10)c9n8)cc7)CC6)CC5)CC4)cc3C2=O)C(=O)N1 (centres undefined) on Protein cereblon/Cyclin-dependent kinase 6 (Homo sapiens, UniProt Q00534+Q96SW2) was 90
